Test: Half life in rat liver microsomes
Format: ADME, microsome
Details: liver microsomes
Measurement type: half-life (min)
Output spec: scalar in min, unitless text.

Which half-life is listed for NC(=O)c1cccc(C2C[C@H]3CC[C@H](C2)N3CC(=O)C2CCCCC2)c1 (relative stereo; 30a) ?
70

Which half-life is listed for NC(=O)c1cccc(C2C[C@H]3CC[C@H](C2)N3CCCOc2ccccc2)c1 (relative stereo) ?
2

Which half-life is listed for Oc1cccc(C2C[C@H]3CC[C@H](C2)N3Cc2c(F)cccc2F)c1 (relative stereo; 18a) ?
2

Which half-life is listed for CC(C)(C)c1ccc(CN2[C@@H]3CC[C@@H]2CC(c2cccc(O)c2)C3)cc1 (relative stereo; 20a) ?
2
